- assay-target: AP-2 complex subunit beta (Homo sapiens) (UniProt P63010)
- Sequence (P63010 whole entry, looked up, one chain of several): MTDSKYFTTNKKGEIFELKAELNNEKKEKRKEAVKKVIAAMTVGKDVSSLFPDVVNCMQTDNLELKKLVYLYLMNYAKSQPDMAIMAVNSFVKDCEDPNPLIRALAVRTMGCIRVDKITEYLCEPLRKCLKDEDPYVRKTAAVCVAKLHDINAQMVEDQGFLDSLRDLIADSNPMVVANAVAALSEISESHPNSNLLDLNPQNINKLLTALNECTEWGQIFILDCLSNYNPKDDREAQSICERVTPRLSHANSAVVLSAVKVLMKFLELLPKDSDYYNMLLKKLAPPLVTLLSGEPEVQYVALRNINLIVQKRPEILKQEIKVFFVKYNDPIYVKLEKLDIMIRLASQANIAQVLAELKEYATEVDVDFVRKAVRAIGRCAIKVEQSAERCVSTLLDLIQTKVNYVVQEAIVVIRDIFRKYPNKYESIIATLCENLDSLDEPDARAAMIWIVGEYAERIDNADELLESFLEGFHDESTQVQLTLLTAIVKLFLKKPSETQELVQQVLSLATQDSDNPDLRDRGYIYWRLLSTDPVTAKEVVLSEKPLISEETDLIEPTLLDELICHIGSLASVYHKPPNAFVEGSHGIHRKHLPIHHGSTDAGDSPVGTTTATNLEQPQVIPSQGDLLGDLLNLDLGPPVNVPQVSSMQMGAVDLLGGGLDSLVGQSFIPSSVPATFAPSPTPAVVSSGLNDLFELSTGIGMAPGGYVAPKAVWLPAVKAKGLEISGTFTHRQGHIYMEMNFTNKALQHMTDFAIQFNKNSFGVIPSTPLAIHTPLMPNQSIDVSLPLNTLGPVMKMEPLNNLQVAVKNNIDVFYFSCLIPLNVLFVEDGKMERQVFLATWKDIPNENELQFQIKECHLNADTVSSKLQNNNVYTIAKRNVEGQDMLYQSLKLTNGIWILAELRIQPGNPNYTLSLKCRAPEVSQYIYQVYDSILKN
- test-details: inhibitors of arrestin peptide binding to AP2, pilot screen, biochemical, validation set, GST-AP2 beads, flow cytometry (AID 504541);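 note: AP2 carries R879A mutation and is captured from E. coli lysate; bead-bound FITC arrestin peptide fluorescence measuring arrestin peptide binding to AP2; 0% = DMSO wells and 100% = excess unlabeled arrestin peptide control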
- test-parameters: FITC arrestin peptide, at 10 µM, stronger effect = higher value
measurement-type: inhibition (%)

molecule: CCCC[N+]1(C)[C@@H]2CC(OC(=O)[C@H](CO)c3ccccc3)C[C@H]1[C@@H]1O[C@@H]12 (stereo partly specified)
measurement-type: inhibition
unit-info: %
val: 0.96
//
molecule: CC1CCC[C@H](O)CCCCCc2cc(O)cc(O)c2C(=O)O1 (stereo partly specified)
measurement-type: inhibition
unit-info: %
val: -18.8
//
molecule: COc1ccc(OC)c([C@@H](O)[C@H](C)NC(C)(C)C)c1
measurement-type: inhibition
unit-info: %
val: -6.97
//
molecule: C[C@]12CCC(=O)C=C1CCC1C2CC[C@@]2(C)C1CC[C@@]2(O)CC#N (stereo partly specified)
measurement-type: inhibition
unit-info: %
val: -0.45
//
molecule: O=c1[nH]c2ccccc2n1C1CCN(CCCC(c2ccc(F)cc2)c2ccc(F)cc2)CC1
measurement-type: inhibition
unit-info: %
val: -9.19
//
molecule: CN1CCN(C(=O)OC2c3nccnc3C(=O)N2c2ccc(Cl)cn2)CC1 (stereo unspecified)
measurement-type: inhibition
unit-info: %
val: 0.51
//
molecule: CCn1ccnc1CN1CCCC(C(=O)c2cc(F)ccc2OC)C1 (stereo unspecified)
measurement-type: inhibition
unit-info: %
val: 18.6
//
molecule: Cc1nc2ccccc2c(=O)n1-c1ccc(C(=O)O)cc1
measurement-type: inhibition
unit-info: %
val: 34.5
//
molecule: Cc1cc(Cl)ccc1OCC(=O)O
measurement-type: inhibition
unit-info: %
val: -8.4
//
molecule: Cc1cc2c(C(C)C)c(O)c(O)c(C=O)c2c(O)c1-c1c(C)cc2c(C(C)C)c(O)c(O)c(C=O)c2c1O
measurement-type: inhibition
unit-info: %
val: 14
//
molecule: C[C@H]1OC[C@@H](C[N+](C)(C)C)O1
measurement-type: inhibition
unit-info: %
val: 5.6
